# experimental_protocol: Oral bioavailability in Sprague-Dawley rat at 14 mg/kg measured up to 24 hrs postdose
# Type: ADME, organism-based
# condition: in vivo
measured_attribute: bioavailability (%)
Numeric only. Scale: %

In: Which bioavailability value is on record for "N#Cc1ccc2c(c1)[nH]c(=O)n2[C@H]1C[C@H](c2nnc(-c3ccncn3)n2-c2ccccc2Cl)C1" ?
Out: 35

====

# experimental_protocol: AUC (0 to t) in Beagle dog at 7 mg/kg, po measured up to 24 hrs postdose
# Format: ADME, organism-based, Canis lupus familiaris
# Set-up: time < 24 hr, dose 7 mg/kg, route oral
# condition: in vivo
measured_attribute: AUC(0-t) at 24 h (ng·h/mL)
Reply with just the number (in ng·h/mL).

In: Any idea what AUC(0-t) at 24 h was measured for "N#Cc1ccc2c(c1)[nH]c(=O)n2[C@H]1C[C@H](c2nnc(-c3ccncn3)n2-c2ccccc2Cl)C1" ?
Out: 27100
